Reported values of kinase still bound, per cent of control for individual entries
target: BLK (human) (UniProt P51451); experiment: KINOMEscan competition binding; conditions: compound 10.0 µM
Sequence (P51451 whole entry, looked up): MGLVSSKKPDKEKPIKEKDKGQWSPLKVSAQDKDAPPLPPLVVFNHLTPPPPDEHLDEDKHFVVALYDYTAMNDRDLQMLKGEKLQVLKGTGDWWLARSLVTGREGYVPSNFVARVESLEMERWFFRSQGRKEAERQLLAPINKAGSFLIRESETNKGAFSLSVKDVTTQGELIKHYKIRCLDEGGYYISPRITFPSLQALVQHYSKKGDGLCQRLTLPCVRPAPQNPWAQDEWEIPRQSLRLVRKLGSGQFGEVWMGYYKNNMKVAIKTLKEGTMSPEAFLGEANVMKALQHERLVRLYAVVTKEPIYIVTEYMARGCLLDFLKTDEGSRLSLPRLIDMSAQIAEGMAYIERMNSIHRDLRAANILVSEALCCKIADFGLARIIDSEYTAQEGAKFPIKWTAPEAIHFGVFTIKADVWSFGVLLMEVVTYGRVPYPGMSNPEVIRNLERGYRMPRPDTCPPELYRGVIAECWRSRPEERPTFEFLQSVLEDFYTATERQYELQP
Provide the reading as a plain figure in %.

molecule	kinase still bound, per cent of control (%)
Cc1cn(-c2cc(C(=O)Nc3ccc(C)c(NC(=O)c4ccno4)c3)cc(C(F)(F)F)c2)cn1	15

Please look up its kinase still bound, per cent of control: N#Cc1cc(-c2ccnc(Nc3ccc(-n4cnc(-c5cccnc5)n4)cc3)n2)cc(N2CCOCC2)c1 86

Please look up its kinase still bound, per cent of control: CCc1nc(-c2cccc(C)c2)c(-c2ccnc(NC(=O)c3ccccc3)c2)s1 17

Please look up its kinase still bound, per cent of control: N#C/C(=C1/Nc2ccccc2S1)c1ccnc(NCCc2cccnc2)n1 100

Please look up its kinase still bound, per cent of control: CCN(CCO)CCCOc1ccc2c(Nc3cc(CC(=O)Nc4cccc(F)c4)[nH]n3)ncnc2c1 9.6

Please look up its kinase still bound, per cent of control: CC1=C(C(=O)Nc2cc3cn[nH]c3cc2F)C(c2ccc(C(F)(F)F)cc2)CC(=O)N1 (configuration not stated) 12

Please look up its kinase still bound, per cent of control: COc1cc2c(Nc3ccc(NC(=O)c4ccccc4)cc3)ncnc2cc1OCCCN1CCOCC1 0.5

Please look up its kinase still bound, per cent of control: COc1cc(C)c(Sc2cnc(NC(=O)c3ccc(CNC(C)C(C)C)cc3)s2)cc1C(=O)N1CCN(C(C)=O)CC1 (configuration not stated) 100

Please look up its kinase still bound, per cent of control: CNC(=O)Nc1ccc(-c2nc(N3CC4CCC(C3)O4)c3cnn(C4CCC5(CC4)OCCO5)c3n2)cc1 96

Please look up its kinase still bound, per cent of control: COc1ccc(N(C(=O)Oc2cc(C(=O)Nc3cccc(C(F)(F)F)c3)ccc2C)c2ccnc(Nc3ccc(N4CCN(C)CC4)cc3)n2)c(OC)c1 0.45

Please look up its kinase still bound, per cent of control: CCCS(=O)(=O)Nc1ccc(F)c(C(=O)c2c[nH]c3ncc(Cl)cc23)c1F 1.7

Please look up its kinase still bound, per cent of control: COc1cc2ncnc(Nc3cccc(Cl)c3)c2cc1OC 7.1

Please look up its kinase still bound, per cent of control: CCN1CCN(Cc2ccc(NC(=O)c3ccc(C)c(/C=C/c4cnc5[nH]ccc5c4OC)c3)cc2C(F)(F)F)CC1 0.15

Please look up its kinase still bound, per cent of control: COc1cc(N2CCC(C(N)=O)CC2)ccc1Nc1nc(N)c(Cl)c(Nc2ccccc2S(=O)(=O)C(C)C)n1 22

Please look up its kinase still bound, per cent of control: O=c1[nH]c2ccccc2n1C1CCN(Cc2ccc(-c3nc4cc5[nH]cnc5cc4nc3-c3ccccc3)cc2)CC1 76

Please look up its kinase still bound, per cent of control: C=CC(=O)Nc1ccc(C(=O)c2sc(Nc3ccc(N4CCN(C)CC4)cc3OC)nc2N)cc1 100

Please look up its kinase still bound, per cent of control: CCOc1cc(N2CCC(O)CC2)ccc1Nc1ncc2c(n1)N(C)c1ccccc1C(=O)N2C 100

----------
test system: PIK3CA (human), P42336 [H1047L]; test: KINOMEscan competition binding; conditions: compound 10.0 µM
Sequence (P42336 whole entry H1047L, looked up): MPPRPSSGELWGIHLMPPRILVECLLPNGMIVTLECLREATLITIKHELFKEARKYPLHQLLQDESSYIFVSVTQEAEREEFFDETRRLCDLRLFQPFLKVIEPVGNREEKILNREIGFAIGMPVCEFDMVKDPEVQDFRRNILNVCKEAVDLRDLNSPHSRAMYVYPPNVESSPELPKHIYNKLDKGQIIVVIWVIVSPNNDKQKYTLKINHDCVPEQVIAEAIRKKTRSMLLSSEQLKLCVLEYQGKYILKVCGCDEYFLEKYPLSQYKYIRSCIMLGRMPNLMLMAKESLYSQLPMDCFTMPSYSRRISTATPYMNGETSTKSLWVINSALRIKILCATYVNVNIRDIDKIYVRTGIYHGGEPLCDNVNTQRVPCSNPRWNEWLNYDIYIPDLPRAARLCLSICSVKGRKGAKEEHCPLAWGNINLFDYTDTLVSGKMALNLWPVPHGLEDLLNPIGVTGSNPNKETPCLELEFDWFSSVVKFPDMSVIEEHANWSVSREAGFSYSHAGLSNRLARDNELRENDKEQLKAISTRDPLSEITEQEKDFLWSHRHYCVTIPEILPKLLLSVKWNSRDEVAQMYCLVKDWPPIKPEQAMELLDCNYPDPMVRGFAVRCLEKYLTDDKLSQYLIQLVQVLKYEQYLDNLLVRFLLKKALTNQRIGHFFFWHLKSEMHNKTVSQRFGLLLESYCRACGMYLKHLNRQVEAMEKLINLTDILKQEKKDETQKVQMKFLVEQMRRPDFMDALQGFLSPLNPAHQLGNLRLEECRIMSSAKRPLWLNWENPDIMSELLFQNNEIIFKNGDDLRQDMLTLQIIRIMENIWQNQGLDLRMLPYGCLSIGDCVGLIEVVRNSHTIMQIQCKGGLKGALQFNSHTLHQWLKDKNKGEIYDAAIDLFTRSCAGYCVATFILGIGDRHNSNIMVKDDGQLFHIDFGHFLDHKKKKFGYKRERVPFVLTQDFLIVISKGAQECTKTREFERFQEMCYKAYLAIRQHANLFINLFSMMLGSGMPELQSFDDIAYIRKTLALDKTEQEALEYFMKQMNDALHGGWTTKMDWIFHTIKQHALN
Mark 1 (yes) only for kinase still bound, per cent of control values smaller than 70%; exact matches and larger values are 0 (no).

Previously resolved entries follow.
smiles_string	tested_system	assigned_category
O=C(NC1CC1)c1cccc(-c2ccc3c(NC(=O)C4CC4)n[nH]c3c2)c1	PIK3CA (human), P42336 [H1047L]	0 (no)
C[C@@H](Oc1cc(-n2cnc3ccc(CN4CCN(C)CC4)cc32)sc1C(N)=O)c1ccccc1C(F)(F)F	PIK3CA (human), P42336 [H1047L]	1 (yes)
N#CCNC(=O)c1ccc(-c2ccnc(Nc3ccc(N4CCOCC4)cc3)n2)cc1	PIK3CA (human), P42336 [H1047L]	0 (no)
Cc1cn(-c2cc(C(=O)Nc3ccc(C)c(NC(=O)c4ccno4)c3)cc(C(F)(F)F)c2)cn1	PIK3CA (human), P42336 [H1047L]	0 (no)
CNC(=O)Nc1ccc(-c2nc(N3CC4CCC(C3)O4)c3cnn(C4CCC5(CC4)OCCO5)c3n2)cc1	PIK3CA (human), P42336 [H1047L]	1 (yes)
COc1cc2ncnc(-n3nc(-c4ccccn4)nc3N)c2cc1OC	PIK3CA (human), P42336 [H1047L]	1 (yes)

Please determine if C=CC(=O)Nc1cc(NC(=O)c2ccc(C)c(NC(=O)c3ccno3)c2)cc(C(F)(F)F)c1 is below 70% in terms of kinase still bound, per cent of control. 0 (no)

Please determine if COc1cc2c(Nc3ccc(NC(=O)c4ccccc4)cc3)ncnc2cc1OCCCN1CCOCC1 is below 70% in terms of kinase still bound, per cent of control. 0 (no)

Please determine if O=c1cc(N2CCOCC2)oc2c(-c3cccc4c3sc3ccccc34)cccc12 is below 70% in terms of kinase still bound, per cent of control. 1 (yes)
